Target: YfiP (TuaA, tRNA U47 acp transferase A) (Escherichia coli, UniProt Q47319)
Construct: gene tapT; E. coli YfiP with a C-terminal 6xHis-tag
Sequence (Q47319 whole entry): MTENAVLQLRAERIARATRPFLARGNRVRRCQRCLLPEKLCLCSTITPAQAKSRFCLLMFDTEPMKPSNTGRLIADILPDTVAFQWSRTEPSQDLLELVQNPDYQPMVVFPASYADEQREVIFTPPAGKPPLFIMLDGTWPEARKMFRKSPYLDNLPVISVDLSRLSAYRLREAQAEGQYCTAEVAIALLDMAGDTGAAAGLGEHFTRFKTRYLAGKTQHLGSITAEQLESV
Assay: ITC, […]°C, one-site binding model; also in vitro acp transfer to tRNA
property: Kd (µM)
Write the answer as a number in µM, unit excluded.

Req: Using the record for C[S+](CC[C@H](N)C(=O)O)C[C@H]1O[C@@H](n2cnc3c(N)ncnc32)[C@H](O)[C@@H]1O (stereo partly shown) , report its Kd.
Resp: 32
